pKi by entry:
target: SOCS2-ElonginB-ElonginC complex, wild-type (human | , UniProt O14508 32-198; Q15370 1-104; Q15369 17-112); assay: 19F ligand-observed CPMG NMR displacement assay; peptide (GHR 10 μM, EpoR 50 μM) displaces the fluorinated pY analog spy molecule 3 (100 μM) from SBC (5 μM); 20 mM HEPES pH 8, 50 mM NaCl, 1 mM DTT, 20% D2O, 298 K; conditions: both partners purified
Sequence (O14508 32-198, chain 1 of 3): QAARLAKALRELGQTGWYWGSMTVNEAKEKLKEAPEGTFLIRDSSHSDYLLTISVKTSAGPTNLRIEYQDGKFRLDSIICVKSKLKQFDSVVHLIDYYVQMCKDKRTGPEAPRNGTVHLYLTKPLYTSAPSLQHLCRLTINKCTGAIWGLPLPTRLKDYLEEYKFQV
Sequence (Q15370 1-104, chain 2 of 3): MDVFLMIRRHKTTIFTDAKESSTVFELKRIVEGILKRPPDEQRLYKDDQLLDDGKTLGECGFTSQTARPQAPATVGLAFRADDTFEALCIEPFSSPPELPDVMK
Sequence (Q15369 17-112, chain 3 of 3): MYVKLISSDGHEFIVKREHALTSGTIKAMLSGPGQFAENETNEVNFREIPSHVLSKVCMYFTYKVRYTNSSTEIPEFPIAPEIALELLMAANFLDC
Where no end group is shown, it is not given here. [ ]: non-standard residue; d: D form. pY = N[C@@H](Cc1ccc(OP(=O)(O)O)cc1)C(=O)O
// pKi here means minus log10 of the molar concentration (mol/L)

Some binders with known pKi results, for comparison:
ASFE[pY]TILDAS-NH2 [EpoR_pY426 peptide, alanine at pY(+5)] | 5.16
ASFE[pY]TIADPS-NH2 [EpoR_pY426 peptide, alanine at pY(+3)] | 4.69

Then this binder:
Q: Which measured pKi value corresponds to ASFE[pY]TILAPS-NH2 [EpoR_pY426 peptide, alanine at pY(+4)] ?
A: 4.85

Cited source: paper PMC6557900
